# Measured Target: human ether-à-go-go-related gene (hERG) potassium channel (human);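 further: peak tail current of the secondary pulse compared with the same well before compound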
# Sequence (Q12809 whole entry, looked up): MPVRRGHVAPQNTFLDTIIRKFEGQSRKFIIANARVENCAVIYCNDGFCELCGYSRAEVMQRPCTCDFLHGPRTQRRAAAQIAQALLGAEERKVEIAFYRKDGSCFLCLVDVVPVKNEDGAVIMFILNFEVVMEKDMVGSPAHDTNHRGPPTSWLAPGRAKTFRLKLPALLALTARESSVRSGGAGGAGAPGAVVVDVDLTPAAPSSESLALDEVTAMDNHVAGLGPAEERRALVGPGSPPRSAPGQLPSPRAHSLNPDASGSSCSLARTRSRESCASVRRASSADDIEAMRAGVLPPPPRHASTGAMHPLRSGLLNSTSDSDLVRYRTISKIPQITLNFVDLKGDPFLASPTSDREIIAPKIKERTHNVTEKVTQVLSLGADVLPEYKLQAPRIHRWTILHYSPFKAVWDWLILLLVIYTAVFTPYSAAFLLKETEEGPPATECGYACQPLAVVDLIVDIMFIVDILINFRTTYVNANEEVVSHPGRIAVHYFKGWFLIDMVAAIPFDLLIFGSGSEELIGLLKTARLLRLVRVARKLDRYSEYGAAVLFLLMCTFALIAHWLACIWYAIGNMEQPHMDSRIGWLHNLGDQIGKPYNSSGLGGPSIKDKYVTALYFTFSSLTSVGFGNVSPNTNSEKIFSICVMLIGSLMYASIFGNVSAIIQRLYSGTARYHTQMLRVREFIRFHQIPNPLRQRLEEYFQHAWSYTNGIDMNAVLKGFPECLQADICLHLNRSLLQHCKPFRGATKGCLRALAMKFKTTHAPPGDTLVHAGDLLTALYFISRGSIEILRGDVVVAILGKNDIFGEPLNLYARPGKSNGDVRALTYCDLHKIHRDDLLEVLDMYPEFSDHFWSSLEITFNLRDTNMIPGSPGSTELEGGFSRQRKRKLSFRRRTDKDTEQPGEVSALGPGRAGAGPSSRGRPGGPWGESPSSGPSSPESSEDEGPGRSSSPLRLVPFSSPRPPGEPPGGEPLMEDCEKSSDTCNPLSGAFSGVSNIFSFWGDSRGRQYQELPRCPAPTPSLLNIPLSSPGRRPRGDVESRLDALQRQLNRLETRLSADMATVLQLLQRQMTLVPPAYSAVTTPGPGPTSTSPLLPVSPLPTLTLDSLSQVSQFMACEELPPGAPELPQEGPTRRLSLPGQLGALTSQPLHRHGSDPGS
# Experiment Description: primary screen, population patch clamp on CHO cells stably expressing hERG; higher = less effect of the substance
In all, about 310,000 compounds went through this assay and about 14,000 (4.5%) showed an effect of 50% or more. The effect is printed as a negative number. Many of the other results were omitted from the sample, so strong results are more common in it than they were.
Quantity Kind: hERG current change (%, negative = inhibition) at 10uM (%)
Entry rule: numbers only, all in %.

Worked cases, hERG current change (%, negative = inhibition) at 10uM given:
| Molecule | Unit Annotation | Numeric Readout |
| --- | --- | --- |
| CCN(CC(=O)Nc1c(F)cccc1F)C(=O)CSc1ccc(F)cc1 | % | -14.3 |
| Cl.OCCNCc1ccc(OCc2ccc(Cl)cc2Cl)cc1 | % | -45.8 |
| Cc1ccc(OCCCNCCO)c(Br)c1.O=C(O)C(=O)O | % | -10.5 |
| O=C(CSc1ccc(Cl)cc1)NCc1ccncc1 | % | -14.2 |

Moving on to the next molecule.
Value of measured hERG current change (%, negative = inhibition) at 10uM for the entry CCNC(=O)CC1C(=O)N(c2cccc(OC)c2)C(=O)N1CCOC (centres unmarked) : 8.39
